FYI, the data here is from ChEMBL document CHEMBL6074662.

Assay: Cytotoxicity against mouse RAW264.7 cells assessed as cell viability at 30 uM incubated for 16 hrs by WST-8 assay relative to control
Type: toxicity, cell-based
Details: read-out: Activity
measured.property: viability at 16 h, 30 µM

For this substance ( H-GVFRLKKWIKKVIKKWGK-NH2 ), measured viability at 16 h, 30 µM is > 80%

Continuing:
Lab note: H-GVFRLKKWLKKVKKWGK-NH2 gave viability at 16 h, 30 µM of > 80%

----------
Assay: Effect on secondary structure of drug in SDS assessed as fold increase in formation of alpha-helical conformation at 150 uM by CD analysis relative to HVF18
Assay type: physicochemical
measured.property: fold change (FC)

Solved cases (4 shown):
Sample H-GVFRLKKWIKKVIKKWGK-NH2 ; fold change (FC) observed: ~ 5

The recorded fold change (FC) for entry H-GVFRLKKWIQKVIRQWGR-NH2 equals ~ 5

Query H-GVFRLKKWLKKVKKWGK-NH2 yields fold change (FC) of ~ 5

Recorded fold change (FC) (substance H-GVFRLKKWIQKVIKQWGK-NH2 ): ~ 5

Further cases:
Record summary for H-GVFRLKKWIRKVIRRWGR-NH2 : reported fold change (FC) = ~ 5

----------
Assay: Hydrophobicity of compound assessed as retention time by RP-HPLC analysis
Assay type: physicochemical
measured.property: Retention_time (min)
Numbers only, in min.

So, H-GVFRLKKWIKKVIKKWGK-NH2 ? Its Retention_time was 20.06

Entry H-GVFRLKKWLKKVKKWGK-NH2 — recorded Retention_time = 21.66

Note to self: Retention_time recorded for H-GVFRLKKWIRKVIRRWGR-NH2 was 22.99

Sure, the documented Retention_time for H-GVFRLKKWIQKVIKQWGK-NH2 is 25.16

Reported Retention_time of H-GVFRLKKWIQKVIRQWGR-NH2 : 25.15

***
H-HVFRLKKWIQKVIDQFGE-OH has a reported Retention_time of 25.53

----------
System: Acinetobacter baumannii
Assay: Antibacterial activity against carbapenem-resistant Acinetobacter baumannii NMS 1915 incubated for 24 hrs by CLSI based broth microdilution method
Type: functional
measured.property: MIC (µM)
One number for each entry, in µM.

Observed MIC, Acinetobacter baumannii, H-GVFRLKKWIQKVIRQWGR-NH2 : 2

Lab entry: Acinetobacter baumannii assay, substance H-GVFRLKKWIQKVIKQWGK-NH2 , MIC = 2

Sample H-GVFRLKKWLKKVKKWGK-NH2 , system: Acinetobacter baumannii. Its MIC is 4

Measured on Acinetobacter baumannii, H-GVFRLKKWIKKVIKKWGK-NH2 has a documented MIC of 2

// each substance listed below needs its MIC
1. H-HVFRLKKWIQKVIDQFGE-OH
2. H-GVFRLKKWIRKVIRRWGR-NH2

A)
1: 64; 2: 4

----------
I'd be grateful if you could share measured HC10 for these entries.
Experiment: Hemolytic activity in sheep RBC incubated for 1 hr by absorbance based assay
Assay type: toxicity, cell-based, Ovis aries
Details: erythrocyte

Sure, the documented HC10 for H-GVFRLKKWIRKVIRRWGR-NH2 is 116 µM

Entry H-GVFRLKKWIQKVIKQWGK-NH2 — recorded HC10 = 212 µM

Provide reported HC10 for each item, in the same order as listed.
1. H-GVFRLKKWIQKVIRQWGR-NH2
2. H-GVFRLKKWIKKVIKKWGK-NH2
3. H-HVFRLKKWIQKVIDQFGE-OH
4. H-GVFRLKKWLKKVKKWGK-NH2

A)
1. 122 µM
2. > 256 µM
3. > 256 µM
4. > 256 µM
